# experimentalSystem: HLA-A*68:02
# assay: IEDB peptide-MHC binding, purified MHC/competitive/fluorescence; bounds were set here for any values at or beyond the usual limits of such assays
# recordedConditions: source organism: Tarsius lariang
pIC50: −log10 of the molar value.
observationType: pIC50

Data request: Fill in the recorded pIC50 for this sequence, with HLA-A*68:02 as test system: TEAEKWPFF
Data returned: ≤ 4.70

* * *

# experimentalSystem: HLA-A*26:01
# assay: IEDB peptide-MHC binding, purified MHC/direct/fluorescence; filed as Kd, often an IC50 or EC50 that approximates it; bounds were set here for any values at or beyond the usual limits of such assays
# recordedConditions: source organism: Yersinia enterocolitica subsp. enterocolitica 8081
pKd: −log10 of the molar value.
observationType: pKd

Data request: Suppose we examine the sequence SDDQLRLLK ; what pKd value has been reported?
Data returned: ≤ 4.70
